Here's what we have: pIC50 numbers for Peroxisome proliferator-activated receptor delta (Homo sapiens).
The meaning of pIC50 here: minus log10 of the concentration in molar units.

molecule="CCCn1c(CCCc2ccc(OC(C)(C)C(=O)O)cc2)nn(C(C)c2ccccc2)c1=O (centres undefined)" reported_property=pIC50 value=5.82
molecule=Cc1ccc(Cn2nc(CCCc3ccc(OC(C)(C)C(=O)O)cc3)n(CCO)c2=O)cc1 reported_property=pIC50 value=5.39
molecule="Cc1ccc(Cn2nc(CCCc3ccc(OC(C)(C)C(=O)O)cc3)nc2O)cc1 [LY-518674]" reported_property=pIC50 value=5.42

# next molecule below
For record CCCn1c(CCCc2ccc(OC(C)(C)C(=O)O)cc2)nn(Cc2cccc(OC)c2)c1=O the listed pIC50 is 5.70
